Exercise: state measured pIC50 for each of the compounds provided.
target system: Plasmepsin-2 (PM-2; Plm II) (Plasmodium falciparum (isolate HB3))
Sequence (P46925 125-453 limits assumed): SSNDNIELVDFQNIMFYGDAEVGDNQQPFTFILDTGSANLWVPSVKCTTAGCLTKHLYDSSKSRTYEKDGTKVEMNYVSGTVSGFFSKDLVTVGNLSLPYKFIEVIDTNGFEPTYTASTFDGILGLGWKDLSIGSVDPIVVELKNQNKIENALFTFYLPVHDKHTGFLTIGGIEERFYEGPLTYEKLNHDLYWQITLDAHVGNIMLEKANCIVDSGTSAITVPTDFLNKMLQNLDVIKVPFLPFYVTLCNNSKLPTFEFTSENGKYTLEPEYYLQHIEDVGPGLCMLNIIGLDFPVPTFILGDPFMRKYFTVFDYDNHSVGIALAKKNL
assay: Plasmepsin-2 enzyme inhibition assay
Format: biochemical
test conditions: Table 13; read-out: PM-2 IC50
Answers are plain numbers, as −log10 of the molar value.

COc1ccc(C2(c3ccc(OC)cc3)NC(=N)N(Cc3ccccc3C#N)C2=O)cc1 [Example 305]
8.03
COc1ccc(C2(c3ccncc3)NC(=N)N(C3CCOCC3)C2=O)cc1 (centres unmarked) [Example 334]
7.07
COc1cccc(C2(c3cccc(OC)c3)NC(=N)N(C3CCCCC3)C2=O)c1 [Example 128]
7.44
COc1ccc(C2(c3ccc(OC)cc3)NC(=N)N(CC3CCCO3)C2=O)cc1 (centres unmarked) [Example 274]
7.94
COc1ccc(C2(c3ccc(OC)cc3)NC(=N)N(Cc3c(C)cccc3C)C2=O)cc1 [Example 278]
8.56
COc1cccc(-c2cccc(C3(c4ccccc4)NC(=N)N(C4CCOCC4)C3=O)c2)c1 (centres unmarked) [Example 324]
7.95
N=C1NC(c2ccccc2)(c2cccc(-c3ccccc3)c2)C(=O)N1C1CCCCC1 (centres unmarked) [Example 212]
7.91
COc1ccc(C2(c3cccc(-c4ccccc4)c3)NC(=N)N(C3CCCCC3)C2=O)cc1 (centres unmarked) [Example 177]
7.93
N=C1NC(c2ccccc2Cl)(c2ccccc2Cl)C(=O)N1C1CCCCC1 [Example 202]
5.17
COc1ccc(C2(c3ccc(OC)cc3)NC(=N)N(Cc3ccncc3)C2=O)cc1 [Example 203]
7.83

Could you now look at the following compound, please?
Data request: Given COc1cccc(C2(c3cccc(OC)c3)NC(=N)N(Cc3ccccc3)C2=O)c1 [Example 105] , state its recorded pIC50.
Data returned: 7.24

Entry source: patent US9353089B2
